Tested on: HCC 2998
Assay: NCI tumour cell line growth inhibition, 48 h
Calls of active or inactive are those of the source. Rule as the data show it: active = GI50 up to about 1.1 µM and inactive = higher.
endpoint: GI50

These solved cases illustrate the format of a correct answer.
compound | experimentalTarget | resultValue
COc1ccc(-c2c(C3=NCCCN3)nnn2-c2ccccc2)cc1 | HCC 2998 | > 100 µM (inactive)
Cc1n(CC(C)C)c2c([n+]1C)C(=O)c1ccccc1C2=O | HCC 2998 | 0.108 µM (active)
COc1ccc(C(c2ccc(OC)cc2)N2C(=O)CCC2C(=O)O)cc1 (stereo not given) | HCC 2998 | > 100 µM (inactive)
Cc1ccc(S(=O)(=O)NC(=O)Nc2ccc(C(=O)O)c(O)c2)cc1 | HCC 2998 | > 100 µM (inactive)
CCOC(=O)/C=C(/C(=O)OCC)n1cc(C)c(=O)n(Cc2cnnn2CCCCOC(C)=O)c1=O | HCC 2998 | > 10 µM (inactive)
Cc1ccccc1C(=O)C#Cc1cn(C2CC(O)C(CO)O2)c(=O)[nH]c1=O (stereo not given) | HCC 2998 | > 100 µM (inactive)

*Q* Item COC(=O)c1csc(-c2nc(CCNC(=O)OC(C)(C)C)sc2Br)n1 has what recorded GI50?
*A* > 100 µM (inactive)

*Q* Item COc1cc(C(=O)Oc2c(C#N)sc3c2c(=O)n(-c2ccccc2)c(=S)n3-c2ccccc2)cc(OC)c1OC has what recorded GI50?
*A* 19.6 µM (inactive)

*Q* Item CCN1C=C/C(=C\C=C\c2cc[n+](CC)c3ccccc23)c2ccccc21 has what recorded GI50?
*A* 7.24 µM (inactive)
